Recorded measurements of AC50, one per entry
molecular target: Muscarinic acetylcholine receptor M1 (Homo sapiens, UniProt P11229); type: functional, cell-based; further: assay procedure not described here
Sequence (P11229 whole entry): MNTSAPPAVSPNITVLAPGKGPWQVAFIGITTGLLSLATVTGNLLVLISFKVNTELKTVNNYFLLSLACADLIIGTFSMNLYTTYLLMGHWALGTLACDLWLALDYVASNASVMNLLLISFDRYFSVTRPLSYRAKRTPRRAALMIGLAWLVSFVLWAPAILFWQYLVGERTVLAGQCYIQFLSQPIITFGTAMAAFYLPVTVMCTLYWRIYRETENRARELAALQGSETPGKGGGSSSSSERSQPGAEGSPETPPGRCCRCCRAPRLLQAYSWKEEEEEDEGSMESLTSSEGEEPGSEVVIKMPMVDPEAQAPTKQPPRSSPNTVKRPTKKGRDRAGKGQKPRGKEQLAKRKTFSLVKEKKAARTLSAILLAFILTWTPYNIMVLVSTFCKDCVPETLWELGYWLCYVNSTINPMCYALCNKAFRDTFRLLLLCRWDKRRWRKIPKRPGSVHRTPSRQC

compound: CC(C)OC(=O)CCC/C=C\C[C@@H]1[C@@H](/C=C/C(F)(F)COc2ccccc2)[C@H](O)C[C@@H]1O
AC50: > 30 µM
--
compound: [H]/N=C(\N/C(=N/[H])Nc1ccc(Cl)cc1)NC(C)C
AC50: > 30 µM
--
compound: Cc1onc(-c2ccccc2)c1C(=O)N[C@@H]1C(=O)N2[C@@H]1SC(C)(C)[C@@H]2C(=O)O
AC50: > 30 µM
--
compound: CC(=O)Oc1cc(C(F)(F)F)ccc1C(=O)O
AC50: > 30 µM
--
compound: CN(C)CCOC(c1ccccc1)c1ccc(Br)cc1 (stereo not drawn) [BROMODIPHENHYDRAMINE]
AC50: 1.49 µM

q: Query: AC50; subject: Nc1ccc(C(=O)Oc2ccccc2)c(O)c1 [PHENYL AMINOSALICYLATE]
a: 17.1 µM

q: Query: AC50; subject: Cc1cc(NC(=O)C2=C(O)c3ccccc3S(=O)(=O)N2C)no1
a: > 30 µM

q: Query: AC50; subject: CNC(=O)Oc1cccc2ccccc12
a: > 30 µM

q: Query: AC50; subject: Cc1ncc(COP(=O)(O)O)c(C=O)c1O [PYRIDOXAL PHOSPHATE ANHYDROUS]
a: > 30 µM

q: Query: AC50; subject: OC[C@H]1O[C@@H](c2ccc(Cl)c(Cc3ccc(O[C@H]4CCOC4)cc3)c2)[C@H](O)[C@@H](O)[C@@H]1O
a: > 30 µM

q: Query: AC50; subject: N[C@@H](CO)C(=O)O
a: > 30 µM

q: Query: AC50; subject: CC[C@@H]([C@H](C)O)n1ncn(-c2ccc(N3CCN(c4ccc(OC[C@@H]5CO[C@@](Cn6cncn6)(c6ccc(F)cc6F)C5)cc4)CC3)cc2)c1=O
a: > 1 µM
